biological target: ABHD6 (Mus musculus (Mouse), UniProt Q8R2Y0); assay: In vitro competitive activity-based protein profiling (mouse brain membrane fraction or cell lysates), ABHD6 band; format: biochemical; conditions: 1 μM, mouse; read-out: ABHD6 % Inh 1 μM (mouse)
Sequence (Q8R2Y0 whole entry): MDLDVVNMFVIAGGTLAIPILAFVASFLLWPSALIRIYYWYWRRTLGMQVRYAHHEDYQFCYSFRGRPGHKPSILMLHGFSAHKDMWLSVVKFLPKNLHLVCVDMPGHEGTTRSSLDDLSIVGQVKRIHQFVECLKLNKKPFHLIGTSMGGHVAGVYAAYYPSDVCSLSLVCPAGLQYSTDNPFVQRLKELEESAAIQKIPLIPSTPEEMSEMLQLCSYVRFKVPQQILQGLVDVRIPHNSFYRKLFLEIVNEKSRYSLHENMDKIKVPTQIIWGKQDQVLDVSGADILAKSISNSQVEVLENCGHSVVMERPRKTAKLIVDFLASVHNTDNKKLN
observable: inhibition at 1 µM

The following compounds have reported results that may help.
O=C(O)c1ccc(CN2CCC3(CCN(C(=O)OC(C(F)(F)F)C(F)(F)F)CC3)C2)cc1C(F)(F)F [Example 258] : ≥ 75%
O=C(O)C1CCN(Cc2ccc(CN3CCC4(CCN(C(=O)OC(C(F)(F)F)C(F)(F)F)CC4)C3)cc2C(F)(F)F)CC1 [Example 247] : ≥ 75%
NC(=O)C1CCN(C(=O)c2cc(C(F)(F)F)ccc2CN2CCCC23CCN(C(=O)OC(C(F)(F)F)C(F)(F)F)CC3)CC1 [Example 276] : 25 to 75%
O=C(O)C1CCN(Cc2cc(CN3CCCC34CCN(C(=O)OC(C(F)(F)F)C(F)(F)F)CC4)cc(C(F)(F)F)c2)C1 (stereo not drawn) [Example 253] : < 25%
O=C(O)C1CCN(c2cc(CN3CCCC34CCN(C(=O)OC(C(F)(F)F)C(F)(F)F)CC4)cc(S(F)(F)(F)(F)F)c2)CC1 [Example 263] : 25 to 75%
O=C(O)C1COCCN1c1cc(CN2CCC3(CCN(C(=O)OC(C(F)(F)F)C(F)(F)F)CC3)C2)cc(C(F)(F)F)c1 (stereo not drawn) [Example 278] : ≥ 75%

Which inhibition at 1 µM is listed for O=C(O)C1CCN(c2cc(CN3CCC4(CCN(C(=O)OC(C(F)(F)F)C(F)(F)F)CC4)C3)ccc2C(F)(F)F)CC1 [Example 234] ?
≥ 75%

Item: CC1(C(=O)O)CCN(c2cc(C(F)(F)F)ccc2CN2CCCC23CCN(C(=O)OC(C(F)(F)F)C(F)(F)F)CC3)C1 (stereo not drawn) [Example 230]
< 25%

Item: O=C(O)[C@H]1CCCCN1c1cc(CN2CCCC23CCN(C(=O)OC(C(F)(F)F)C(F)(F)F)CC3)cc(C(F)(F)F)c1 [Example 274]
25 to 75%

Item: CC1(C(=O)O)CN(c2cc(CN3CCC4(CCN(C(=O)OC(C(F)(F)F)C(F)(F)F)CC4)C3)cc(C(F)(F)F)c2)CCO1 (stereo not drawn) [Example 252]
≥ 75%

Item: NC(=O)C1CCN(Cc2cc(C(F)(F)F)ccc2CN2CCCC23CCN(C(=O)OC(C(F)(F)F)C(F)(F)F)CC3)CC1 [Example 275]
25 to 75%

Item: O=C(O)c1ccc(CN2CCCC23CCN(C(=O)OC(C(F)(F)F)C(F)(F)F)CC3)c(C(F)(F)F)c1 [Example 265]
≥ 75%

Item: CS(=O)(=O)C1CN(c2cc(C(F)(F)F)ccc2CN2CCCC23CCN(C(=O)OC(C(F)(F)F)C(F)(F)F)CC3)C1 [Example 268]
25 to 75%

Item: O=C(O)C1CCN(c2cc(F)cc(CN3CCCC34CCN(C(=O)OC(C(F)(F)F)C(F)(F)F)CC4)c2)CC1 [Example 236]
< 25%

Item: O=C(O)c1cc(C(F)(F)F)ccc1CN1CCCC12CCN(C(=O)OC(C(F)(F)F)C(F)(F)F)CC2 [Example 261]
< 25%

Item: O=C(O)C1CCCCN1c1cc(C(F)(F)F)ccc1CN1CCC2(CCN(C(=O)OC(C(F)(F)F)C(F)(F)F)CC2)C1 (stereo not drawn) [Example 224]
< 25%

Item: O=C(O)c1ccc(CN2CCCC23CCN(C(=O)OC(C(F)(F)F)C(F)(F)F)CC3)cc1 [Example 250]
< 25%

Item: O=C(O)C1CCN(Cc2cc(C(F)(F)F)ccc2CN2CCCC23CCN(C(=O)OC(C(F)(F)F)C(F)(F)F)CC3)C1 (stereo not drawn) [Example 262]
< 25%

Item: CC1(C(=O)O)CN(c2cc(C(F)(F)F)ccc2CN2CCCC23CCN(C(=O)OC(C(F)(F)F)C(F)(F)F)CC3)CCO1 (stereo not drawn) [Example 260]
< 25%

Item: COc1ccc(CN2CCCC23CCN(C(=O)OC(C(F)(F)F)C(F)(F)F)CC3)cc1C(=O)O [Example 254]
< 25%

Item: O=C(O)C1CCN(c2cc(CN3CCC4(CCN(C(=O)OC(C(F)(F)F)C(F)(F)F)CC4)C3)cc(S(F)(F)(F)(F)F)c2)CC1 [Example 264]
≥ 75%

Item: O=C(O)c1ccccc1CN1CCCC12CCN(C(=O)OC(C(F)(F)F)C(F)(F)F)CC2 [Example 251]
< 25%

Item: O=C(O)C1CCN(Cc2cc(CN3CCCC34CCN(C(=O)OC(C(F)(F)F)C(F)(F)F)CC4)cc(C(F)(F)F)c2)CC1 [Example 244]
< 25%

Item: O=C(O)C1CN(c2cc(CN3CCC4(CCN(C(=O)OC(C(F)(F)F)C(F)(F)F)CC4)C3)cc(C(F)(F)F)c2)CCO1 (stereo not drawn) [Example 277]
≥ 75%

Item: C#Cc1ccc(CN2CCCC23CCN(C(=O)OC(C(F)(F)F)C(F)(F)F)CC3)cc1 [Example 280]
< 25%

Item: O=C(O)c1cc(CN2CCCC23CCN(C(=O)OC(C(F)(F)F)C(F)(F)F)CC3)ccc1Cl [Example 266]
< 25%

Item: Cc1cc(CN2CCCC23CCN(C(=O)OC(C(F)(F)F)C(F)(F)F)CC3)cc(C(=O)O)c1 [Example 243]
< 25%

* * *

biological target: ABHD6 (Mus musculus (Mouse)); experiment: In vitro competitive activity-based protein profiling (mouse brain membrane fraction or cell lysates), ABHD6 band; format: biochemical; conditions: 1 μM, mouse proteome; read-out: ABHD6 % Inh 1 μM (mouse)
observable: inhibition at 1 µM

O=C(COc1cc(C(F)(F)F)ccc1CN1CCCC12CCN(C(=O)OC(C(F)(F)F)C(F)(F)F)CC2)N1CCCC1 [Example 167] : 25 to 75%

Which inhibition at 1 µM is listed for CC1(C)CC2(CCN(C(=O)OC(C(F)(F)F)C(F)(F)F)CC2)CN1Cc1cc(N2CCOCC2)cc(C(F)(F)F)c1 [Example 188] ?
25 to 75%

Item: O=C(OC(C(F)(F)F)C(F)(F)F)N1CCC2(CCCN2Cc2ccc(C(F)(F)F)cc2N2CC3CCC(C2)O3)CC1 [Example 73]
< 25%

Item: O=C(OC(C(F)(F)F)C(F)(F)F)N1CCC2(CCN(Cc3ccc(Cl)cc3N3CCCC3)C2)CC1 [Example 17]
≥ 75%

Item: Cc1c(CN2CCCC23CCN(C(=O)OC(C(F)(F)F)C(F)(F)F)CC3)cccc1N1CCCCC1 [Example 84]
< 25%

Item: Cc1ccc(CN2CCCC23CCN(C(=O)OC(C(F)(F)F)C(F)(F)F)CC3)cc1C(F)(F)F [Example 180]
< 25%

* * *

target: MAGL (Mus musculus (Mouse), UniProt O35678); experiment: In vitro competitive activity-based protein profiling (mouse brain membrane fraction or cell lysates), MAGL band; format: biochemical; conditions: mouse proteome, competitive ABPP
Sequence (O35678 whole entry): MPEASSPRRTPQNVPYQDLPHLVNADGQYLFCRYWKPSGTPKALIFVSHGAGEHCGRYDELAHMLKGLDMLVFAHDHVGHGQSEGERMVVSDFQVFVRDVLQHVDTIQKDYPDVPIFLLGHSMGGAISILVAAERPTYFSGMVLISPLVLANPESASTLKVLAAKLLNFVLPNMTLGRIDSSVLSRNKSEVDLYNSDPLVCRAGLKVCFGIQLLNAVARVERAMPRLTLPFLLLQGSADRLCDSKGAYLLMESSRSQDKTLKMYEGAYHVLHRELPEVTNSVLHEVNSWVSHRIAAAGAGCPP
pIC50: −log10 of the molar value.
observable: pIC50

The following compounds have reported results that may help.
O=C(O)C1CCN(c2cc(Cl)ccc2CN2CCCC23CCN(C(=O)OC(C(F)(F)F)C(F)(F)F)CC3)CC1 : > 7.00
O=C(OC(C(F)(F)F)C(F)(F)F)N1CCC2(CCN(Cc3cccc4c3CN(C3CC3)CC4)C2)CC1 : > 7.00
Cc1ccc(CN2CCC3(CCN(C(=O)OC(C(F)(F)F)C(F)(F)F)CC3)C2)cc1Cl : 6.00 to 7.00
CCOc1ccc(CN2CCCC23CCN(C(=O)OC(C(F)(F)F)C(F)(F)F)CC3)cc1 : 6.00 to 7.00
O=C(OC(C(F)(F)F)C(F)(F)F)N1CCC2(CCCN2Cc2cc(N3CCC3)cc(C(F)(F)F)c2)CC1 : > 7.00
O=C(OC(C(F)(F)F)C(F)(F)F)N1CCC2(CCCN2Cc2ccc(Cl)cc2N2CCC2)CC1 : > 7.00
COc1c(Cl)cccc1CN1CCCC12CCN(C(=O)OC(C(F)(F)F)C(F)(F)F)CC2 : > 7.00

Which pIC50 is listed for O=C(OC(C(F)(F)F)C(F)(F)F)N1CCC2(CCCN2Cc2cccc(N3CC4COCC4C3)c2Cl)CC1 (centres unmarked) ?
> 7.00

* * *

target: FAAH (Mus musculus (Mouse)); test: In vitro competitive activity-based protein profiling (mouse brain membrane fraction or cell lysates), FAAH band; type: biochemical; settings: mouse proteome, competitive ABPP
Sequence (O08914 whole entry): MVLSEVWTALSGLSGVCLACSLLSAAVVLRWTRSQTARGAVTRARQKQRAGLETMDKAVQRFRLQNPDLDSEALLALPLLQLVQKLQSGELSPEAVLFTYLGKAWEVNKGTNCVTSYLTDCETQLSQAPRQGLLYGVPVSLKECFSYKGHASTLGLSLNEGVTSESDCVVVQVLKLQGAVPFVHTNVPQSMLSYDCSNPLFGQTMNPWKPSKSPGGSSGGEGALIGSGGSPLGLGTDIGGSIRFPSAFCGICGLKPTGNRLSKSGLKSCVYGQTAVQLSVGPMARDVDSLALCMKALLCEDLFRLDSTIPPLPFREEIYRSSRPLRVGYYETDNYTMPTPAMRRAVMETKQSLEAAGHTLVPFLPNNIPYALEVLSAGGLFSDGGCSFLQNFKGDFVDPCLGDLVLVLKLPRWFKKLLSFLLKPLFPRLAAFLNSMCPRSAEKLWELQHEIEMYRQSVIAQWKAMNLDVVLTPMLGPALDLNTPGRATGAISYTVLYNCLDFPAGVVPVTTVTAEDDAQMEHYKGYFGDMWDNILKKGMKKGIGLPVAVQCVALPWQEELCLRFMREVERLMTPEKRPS
pIC50: −log10 of the molar value.
observable: pIC50

The following compounds have reported results that may help.
O=C(OC(C(F)(F)F)C(F)(F)F)N1CCC2(CCN(Cc3ccc(C(F)(F)F)cc3N3CCOCC3)C2)CC1 : < 6.00
O=C(OC(C(F)(F)F)C(F)(F)F)N1CCC2(CCCN2Cc2ccc(OCCN3CCCCC3)c(Cl)c2)CC1 : < 6.00
O=C(OC(C(F)(F)F)C(F)(F)F)N1CCC2(CCCN2Cc2cccc(N3CCC4(CCOCC4)C3)c2Cl)CC1 : < 6.00
CS(=O)(=O)N1CCN(c2cc(C(F)(F)F)ccc2CN2CCCC23CCN(C(=O)OC(C(F)(F)F)C(F)(F)F)CC3)CC1 : < 6.00
O=C(OC(C(F)(F)F)C(F)(F)F)N1CCC2(CCCN2Cc2cccc(OCCN3CCCC3)c2)CC1 : < 6.00

Which pIC50 is listed for O=C(OC(C(F)(F)F)C(F)(F)F)N1CCC2(CCCN2Cc2ccc(Cl)cc2N2CCC2)CC1 ?
< 6.00

Item: COc1cc(Cl)ccc1CN1CCCC12CCN(C(=O)OC(C(F)(F)F)C(F)(F)F)CC2
< 6.00

Item: O=C(OC(C(F)(F)F)C(F)(F)F)N1CCC2(CCCN2Cc2cccc(N3C4CCC3COC4)c2Cl)CC1
< 6.00

Item: CCOc1cccc(CN2CCCC23CCN(C(=O)OC(C(F)(F)F)C(F)(F)F)CC3)c1
< 6.00

Item: O=C(OC(C(F)(F)F)C(F)(F)F)N1CCC2(CCCN2Cc2cc(Cl)cc(N3CC4COCC4C3)c2)CC1 (stereo not drawn)
< 6.00
